Data origin, for the record: ChEMBL document CHEMBL3243951

The following compounds are shown together with reported Activity values.
Tested on: Mus musculus
Assay: Toxicity in BDF1 mouse allografted with mouse L1210 cells assessed as change in body weight at 80 mg/kg, qd administered for 6 days measured during compound treatment (reference value: 14.8%)
Assay type: organism-based
Design: dose 80 mg/kg
Conditions: in vivo, 144 h
Numeric answer only, unit % assumed.

Use these answered entries as a reference point.
Query: Find the measured Activity of COc1ccc(S(=O)(=O)N/N=C/c2cccc[n+]2[O-])cc1 and report it.
Response: -4.9

Query: Find the measured Activity of O=S(=O)(N/N=C/c1cccc[n+]1[O-])c1ccccc1 and report it.
Response: -8

Query: Find the measured Activity of O=[N+]([O-])c1cccc(S(=O)(=O)N/N=C/c2cccc[n+]2[O-])c1 and report it.
Response: -5.4

Could you now consider this next compound?
Query: Find the measured Activity of Cc1ccc(S(=O)(=O)N/N=C/c2cccc[n+]2[O-])cc1 and report it.
Response: -7.4

====

Test system: Mus musculus
Experiment: Toxicity in CD-1 mouse allografted with mouse sarcoma 180 cells assessed as change in body weight at 40 mg/kg, qd administered for 6 days measured during compound treatment (reference value: 30.2%)
Type: organism-based
Design: dose 40 mg/kg
Conditions: in vivo, 144 h
The following molecules are shown together with reported Activity values.
Numeric answer only, unit % assumed.

Use these answered entries as a reference point.
Query: Find the measured Activity of O=S(=O)(N/N=C/c1cccc[n+]1[O-])c1ccc2c(c1)Cc1ccccc1-2 and report it.
Response: -4.7

Query: Find the measured Activity of O=S(=O)(N/N=C/c1cccc[n+]1[O-])c1ccccc1 and report it.
Response: -5.2

Others:
Query: Find the measured Activity of O=S(=O)(N/N=C/c1cccc[n+]1[O-])c1ccc(Cl)cc1 and report it.
Response: -0.6

Query: Find the measured Activity of O=S(=O)(N/N=C/c1cccc[n+]1[O-])c1ccc(Br)cc1 and report it.
Response: -3.5

Query: Find the measured Activity of O=C(NNS(=O)(=O)c1ccccc1)c1cccc[n+]1[O-] and report it.
Response: 20.7

====

The following compounds are shown together with reported Activity values.
Test system: Mus musculus
Assay: Toxicity in CD-1 mouse allografted with mouse sarcoma 180 cells assessed as change in body weight at 60 mg/kg, qd administered for 6 days measured during compound treatment (reference value: 30.2%)
Assay type: organism-based
Design: dose 60 mg/kg
Conditions: in vivo, 144 h
Numeric answer only, unit % assumed.

Query: Find the measured Activity of O=S(=O)(N/N=C/c1cccc[n+]1[O-])c1cccc2ccccc12 and report it.
Response: -3.4

Query: Find the measured Activity of Nc1ccc(S(=O)(=O)N/N=C/c2cccc[n+]2[O-])cc1 and report it.
Response: 2.4

====

System: Sarcoma-180
Assay: Antineoplastic activity against mouse sarcoma 180 cells allografted in CD-1 mouse assessed as 50 day survivors at 60 mg/kg, qd administered for 6 days relative to control
Assay type: functional
measuredEndpoint: survival at 60 mg/kg (%)
Numeric answer only, unit % assumed.

Query: Given Nc1ccc(S(=O)(=O)N/N=C/c2cccc[n+]2[O-])cc1 , report its survival at 60 mg/kg on Sarcoma-180.
Response: 0

Query: Given O=[N+]([O-])c1cc[n+]([O-])c(/C=N/NS(=O)(=O)c2ccccc2)c1 , report its survival at 60 mg/kg on Sarcoma-180.
Response: 0

Query: Given Cc1ccc(S(=O)(=O)N/N=C/c2cccc[n+]2[O-])cc1 , report its survival at 60 mg/kg on Sarcoma-180.
Response: 0

Query: Given C/C(=N\NS(=O)(=O)c1ccccc1)c1cccc[n+]1[O-] , report its survival at 60 mg/kg on Sarcoma-180.
Response: 0

Query: Given O=S(=O)(N/N=C/c1cccc[n+]1[O-])c1cccnc1 , report its survival at 60 mg/kg on Sarcoma-180.
Response: 0

Query: Given O=S(=O)(N/N=C/c1cccc[n+]1[O-])c1ccc2ccccc2c1 , report its survival at 60 mg/kg on Sarcoma-180.
Response: 0

Others:
Query: Given O=[N+]([O-])c1cccc(S(=O)(=O)N/N=C/c2cccc[n+]2[O-])c1 , report its survival at 60 mg/kg on Sarcoma-180.
Response: 60

Query: Given Cc1ccccc1S(=O)(=O)N/N=C/c1cccc[n+]1[O-] , report its survival at 60 mg/kg on Sarcoma-180.
Response: 0

Query: Given O=S(=O)(N/N=C/c1cccc[n+]1[O-])c1ccc(F)cc1 , report its survival at 60 mg/kg on Sarcoma-180.
Response: 20

Query: Given O=S(=O)(N/N=C/c1cccc[n+]1[O-])c1cccc2ccccc12 , report its survival at 60 mg/kg on Sarcoma-180.
Response: 0

====

Test system: Sarcoma-180
Test: Antineoplastic activity against mouse sarcoma 180 cells allografted in CD-1 mouse assessed as 50 day survivors at 40 mg/kg, qd administered for 6 days relative to control
Format: functional
measuredEndpoint: survival at 40 mg/kg
Answer by giving the amount and then stating its unit.

Use these answered entries as a reference point.
Query: Find the measured survival at 40 mg/kg of O=C(NNS(=O)(=O)c1ccccc1)c1cccc[n+]1[O-] and report it.
Response: 0%

Query: Find the measured survival at 40 mg/kg of O=S(=O)(N/N=C/c1cccc[n+]1[O-])c1ccccc1 and report it.
Response: 20%

Query: Find the measured survival at 40 mg/kg of O=S(=O)(N/N=C/c1cccc[n+]1[O-])c1ccc2c(c1)Cc1ccccc1-2 and report it.
Response: 0%

Query: Find the measured survival at 40 mg/kg of O=S(=O)(N/N=C/c1cccc[n+]1[O-])c1ccc(Cl)cc1 and report it.
Response: 0%

Could you now consider this next compound?
Query: Find the measured survival at 40 mg/kg of O=S(=O)(N/N=C/c1cccc[n+]1[O-])c1ccc(Br)cc1 and report it.
Response: 0%

====

System: Sarcoma-180
Experiment: Antineoplastic activity against mouse sarcoma 180 cells allografted in CD-1 mouse assessed as increase in survival rate at 60 mg/kg, qd administered for 6 days relative to control
Assay type: functional
measuredEndpoint: T/C (%)
Numeric answer only, unit % assumed.

Use these answered entries as a reference point.
Query: Given O=[N+]([O-])c1cc[n+]([O-])c(/C=N/NS(=O)(=O)c2ccccc2)c1 , report its T/C on Sarcoma-180.
Response: 293

Query: Given O=S(=O)(N/N=C/c1cccc[n+]1[O-])c1ccc2ccccc2c1 , report its T/C on Sarcoma-180.
Response: 308

Others:
Query: Given Cc1ccc(S(=O)(=O)N/N=C/c2cccc[n+]2[O-])cc1 , report its T/C on Sarcoma-180.
Response: 307

====

Test system: Mus musculus
Assay: Toxicity in CD-1 mouse allografted with mouse sarcoma 180 cells assessed as change in body weight at 60 mg/kg, qd administered for 6 days measured during compound treatment (reference value: 30.2%)
Assay type: organism-based
Set-up: dose 60 mg/kg
Settings: in vivo, 144 h
measuredEndpoint: Activity

Use these answered entries as a reference point.
Query: Find the measured Activity of Cc1ccc(S(=O)(=O)N/N=C/c2cccc[n+]2[O-])cc1 and report it.
Response: -8%

Query: Find the measured Activity of O=S(=O)(N/N=C/c1cccc[n+]1[O-])c1cccnc1 and report it.
Response: 0%

Query: Find the measured Activity of C/C(=N\NS(=O)(=O)c1ccccc1)c1cccc[n+]1[O-] and report it.
Response: 23.5%

Others:
Query: Find the measured Activity of Cc1ccccc1S(=O)(=O)N/N=C/c1cccc[n+]1[O-] and report it.
Response: -1.9%

Query: Find the measured Activity of O=S(=O)(N/N=C/c1cccc[n+]1[O-])c1ccc2ccccc2c1 and report it.
Response: -1.2%

Query: Find the measured Activity of O=[N+]([O-])c1cccc(S(=O)(=O)N/N=C/c2cccc[n+]2[O-])c1 and report it.
Response: -7.5%

Query: Find the measured Activity of O=[N+]([O-])c1cc[n+]([O-])c(/C=N/NS(=O)(=O)c2ccccc2)c1 and report it.
Response: -5.4%

Query: Find the measured Activity of O=S(=O)(N/N=C/c1cccc[n+]1[O-])c1ccc(F)cc1 and report it.
Response: -5.7%
